Assay: Noncompetitive inhibition of Streptococcus pneumoniae sialidase NanC using 4-methylumbelliferyl-alpha-D-N-acetylneuraminic acid as substrate after 60 mins by Lineweaver-Burk plot/Dixon plot analysis
assay-readout: log10(Ki) (log10 of the value in µM)
On a log10 scale: recorded Ki, unit µM.

Worked examples follow.
[
  {
    "compound": "C/C=C/c1cc(OC)c2c(c1)[C@H](C)[C@@H](c1ccc3c(c1)OCO3)O2 [(-)-LICARIN B]",
    "recorded-measurement": 1.08
  },
  {
    "compound": "C=CCc1cc(O)c(OC)c(O)c1",
    "recorded-measurement": 1.96
  },
  {
    "compound": "COc1cc([C@@H](O)[C@@H](C)Oc2c(OC)cc(/C=C/CO)cc2OC)ccc1O",
    "recorded-measurement": 1.58
  },
  {
    "compound": "O=C(CCCCCCCCc1ccc(O)cc1)c1c(O)cccc1O [MALABARICONE B]",
    "recorded-measurement": 0.76
  },
  {
    "compound": "C=CCc1cc(OC)c(O)c(OC)c1 [METHOXYEUGENOL]",
    "recorded-measurement": 1.48
  }
]

Please find the next compound below.
Q: Name the recorded log10(Ki) of the item O=C(CCCCCCCCc1ccc(O)c(O)c1)c1c(O)cccc1O [MALABARICONE C] in your answer.
Result: 0.32

----------
Target: Sialidase A (Streptococcus pneumoniae)
Assay: Inhibition of Streptococcus pneumoniae sialidase NanA using 4-methylumbelliferyl-alpha-D-N-acetylneuraminic acid as substrate after 60 mins by FRET assay
assay-readout: inhibition

[
  {
    "smiles-repr": "C=CCc1cc(O)c(OC)c(O)c1",
    "target-or-test-system": "Sialidase A (Streptococcus pneumoniae)",
    "inhibition": "Dose-dependent effect"
  },
  {
    "smiles-repr": "O=C(CCCCCCCCc1ccc(O)c(O)c1)c1c(O)cccc1O",
    "target-or-test-system": "Sialidase A (Streptococcus pneumoniae)",
    "inhibition": "Dose-dependent effect"
  },
  {
    "smiles-repr": "C=CCc1cc(OC)c(O)c(OC)c1",
    "target-or-test-system": "Sialidase A (Streptococcus pneumoniae)",
    "inhibition": "Dose-dependent effect"
  },
  {
    "smiles-repr": "C/C=C/c1cc(OC)c2c(c1)[C@H](C)[C@@H](c1ccc(O)c(OC)c1)O2",
    "target-or-test-system": "Sialidase A (Streptococcus pneumoniae)",
    "inhibition": "Dose-dependent effect"
  }
]

Please find the next compound below.
Q: Give inhibition for `COc1cc([C@@H](O)[C@@H](C)Oc2c(OC)cc(/C=C/CO)cc2OC)ccc1O` tested on Sialidase A (Streptococcus pneumoniae).
Result: Dose-dependent effect

----------
Read-out record for Sialidase A (Streptococcus pneumoniae): pIC50
pIC50 is a log-scale quantity: -log10 of the concentration expressed in molar.

Worked examples follow.
[
  {
    "molecule": "C=CCc1cc(OC)c(O)c(OC)c1 [METHOXYEUGENOL]",
    "recorded-measurement": 5.16
  },
  {
    "molecule": "COc1cc([C@H]2O[C@@H](c3ccc(O)c(OC)c3)[C@@H](C)[C@@H]2C)ccc1O",
    "recorded-measurement": 4.43
  },
  {
    "molecule": "COc1cc([C@@H](O)[C@@H](C)Oc2c(OC)cc(/C=C/CO)cc2OC)ccc1O",
    "recorded-measurement": 5.80
  },
  {
    "molecule": "C/C=C/c1cc(OC)c2c(c1)[C@H](C)[C@@H](c1ccc(O)c(OC)c1)O2 [LICARIN A]",
    "recorded-measurement": 5.10
  },
  {
    "molecule": "C=CCc1cc(OC)c(O[C@H](C)[C@H](OC(C)=O)c2ccc(OC)c(OC)c2)c(OC)c1",
    "recorded-measurement": 3.53
  },
  {
    "molecule": "C=CCc1cc(O)c(OC)c(O)c1",
    "recorded-measurement": 5.70
  },
  {
    "molecule": "C/C=C/c1cc(OC)c2c(c1)[C@H](C)[C@@H](c1ccc3c(c1)OCO3)O2 [(-)-LICARIN B]",
    "recorded-measurement": 5.82
  },
  {
    "molecule": "O=C(CCCCCCCCc1ccc(O)cc1)c1c(O)cccc1O [MALABARICONE B]",
    "recorded-measurement": 6.40
  }
]

Q: Name the recorded pIC50 of the item `C=CCc1cc(OC)c(O[C@@H](C)[C@H](O)c2ccc(O)c(OC)c2)c(OC)c1` in your answer.
Result: 4.59

Q: Name the recorded pIC50 of the item O=C(CCCCCCCCc1ccc(O)c(O)c1)c1c(O)cccc1O [MALABARICONE C] in your answer.
Result: 6.52

Q: Name the recorded pIC50 of the item `C/C=C/c1cc(OC)c2c(c1)[C@H](C)[C@@H](c1cc(OC)c3c(c1)OCO3)O2` in your answer.
Result: 4.35

----------
Assay: Noncompetitive inhibition of Streptococcus pneumoniae sialidase NanB using 4-methylumbelliferyl-alpha-D-N-acetylneuraminic acid as substrate after 60 mins by Lineweaver-Burk plot/Dixon plot analysis
assay-readout: Ki (µM)
The response must be a number in µM with no trailing unit.

Worked examples follow.
[
  {
    "molecule": "O=C(CCCCCCCCc1ccc(O)c(O)c1)c1c(O)cccc1O [MALABARICONE C]",
    "Ki / µM": 3
  },
  {
    "molecule": "C/C=C/c1cc(OC)c2c(c1)[C@H](C)[C@@H](c1ccc3c(c1)OCO3)O2 [(-)-LICARIN B]",
    "Ki / µM": 13.5
  },
  {
    "molecule": "COc1cc([C@@H](O)[C@@H](C)Oc2c(OC)cc(/C=C/CO)cc2OC)ccc1O",
    "Ki / µM": 39.2
  },
  {
    "molecule": "O=C(CCCCCCCCc1ccc(O)cc1)c1c(O)cccc1O [MALABARICONE B]",
    "Ki / µM": 5.6
  }
]

Please find the next molecule below.
Q: Name the recorded Ki of the item `C=CCc1cc(O)c(OC)c(O)c1` in your answer.
Result: 74

----------
Assay: Inhibition of Streptococcus pneumoniae sialidase NanC using 4-methylumbelliferyl-alpha-D-N-acetylneuraminic acid as substrate after 60 mins by FRET assay
Details: read-out: IC50
assay-readout: pIC50
pIC50 is a log-scale quantity: -log10 of the concentration expressed in molar.

[
  {
    "molecule": "C=CCc1cc(O)c(OC)c(O)c1",
    "recorded-measurement": 4.22
  }
]

Q: Name the recorded pIC50 of the item `COc1cc([C@@H](O)[C@@H](C)Oc2c(OC)cc(/C=C/CO)cc2OC)ccc1O` in your answer.
Result: 4.61

Q: Name the recorded pIC50 of the item C=CCc1cc(OC)c(O)c(OC)c1 [METHOXYEUGENOL] in your answer.
Result: 4.47

Q: Name the recorded pIC50 of the item O=C(CCCCCCCCc1ccc(O)cc1)c1c(O)cccc1O [MALABARICONE B] in your answer.
Result: 4.84

Q: Name the recorded pIC50 of the item `COc1cc([C@H]2O[C@@H](c3ccc(O)c(OC)c3)[C@@H](C)[C@@H]2C)ccc1O` in your answer.
Result: 3.56

----------
Molecular target: Sialidase A (Streptococcus pneumoniae, UniProt P62575)
Sequence (P62575 whole entry): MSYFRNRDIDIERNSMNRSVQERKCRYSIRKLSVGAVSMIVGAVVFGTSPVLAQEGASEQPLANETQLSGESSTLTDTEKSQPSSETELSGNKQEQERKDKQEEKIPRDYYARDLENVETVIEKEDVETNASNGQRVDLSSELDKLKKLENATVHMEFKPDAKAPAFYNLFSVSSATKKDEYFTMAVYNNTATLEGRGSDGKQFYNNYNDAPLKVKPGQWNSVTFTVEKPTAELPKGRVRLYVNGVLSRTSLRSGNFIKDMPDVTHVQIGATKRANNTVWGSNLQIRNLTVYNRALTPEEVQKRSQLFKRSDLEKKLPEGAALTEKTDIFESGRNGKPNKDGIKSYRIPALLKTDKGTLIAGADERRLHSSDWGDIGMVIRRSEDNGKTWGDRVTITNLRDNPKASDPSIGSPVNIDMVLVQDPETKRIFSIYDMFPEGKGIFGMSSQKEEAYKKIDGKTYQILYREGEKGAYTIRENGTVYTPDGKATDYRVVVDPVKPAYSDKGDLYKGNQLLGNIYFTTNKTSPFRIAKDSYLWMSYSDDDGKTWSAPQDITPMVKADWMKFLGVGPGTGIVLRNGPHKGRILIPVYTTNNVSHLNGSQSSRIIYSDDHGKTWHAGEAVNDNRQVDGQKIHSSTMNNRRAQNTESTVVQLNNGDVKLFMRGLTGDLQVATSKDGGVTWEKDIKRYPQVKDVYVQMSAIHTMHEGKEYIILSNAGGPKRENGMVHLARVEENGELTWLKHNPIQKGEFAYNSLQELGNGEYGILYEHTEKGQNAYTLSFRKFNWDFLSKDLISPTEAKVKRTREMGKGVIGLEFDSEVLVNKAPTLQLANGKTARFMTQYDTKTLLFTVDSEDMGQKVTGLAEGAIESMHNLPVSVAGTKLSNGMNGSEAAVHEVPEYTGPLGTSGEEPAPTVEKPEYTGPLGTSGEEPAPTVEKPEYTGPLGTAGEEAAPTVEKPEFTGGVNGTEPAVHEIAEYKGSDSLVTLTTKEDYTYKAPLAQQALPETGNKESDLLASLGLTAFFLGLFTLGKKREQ
Experiment: Competitive inhibition of Streptococcus pneumoniae sialidase NanA using 4-methylumbelliferyl-alpha-D-N-acetylneuraminic acid as substrate after 60 mins by Lineweaver-Burk plot/Dixon plot analysis
Listing of recorded Ki by entry.
The response must be a number in nM with no trailing unit.

[
  {
    "smiles-repr": "O=C(CCCCCCCCc1ccc(O)c(O)c1)c1c(O)cccc1O",
    "unit-annotation": "nM",
    "Ki": 100
  }
]

Q: Name the recorded Ki of the item `O=C(CCCCCCCCc1ccc(O)cc1)c1c(O)cccc1O` in your answer.
Result: 500

----------
Target: Sialidase A (Streptococcus pneumoniae, UniProt P62575)
Assay: Noncompetitive inhibition of Streptococcus pneumoniae sialidase NanA using 4-methylumbelliferyl-alpha-D-N-acetylneuraminic acid as substrate after 60 mins by Lineweaver-Burk plot/Dixon plot analysis
Listing of recorded pKi by entry.
pKi is a log-scale quantity: -log10 of the concentration expressed in molar.

Worked examples follow.
[
  {
    "compound": "COc1cc([C@H]2O[C@@H](c3ccc(O)c(OC)c3)[C@@H](C)[C@@H]2C)ccc1O",
    "pKi": 4.66
  },
  {
    "compound": "C=CCc1cc(OC)c(O[C@@H](C)[C@H](O)c2ccc(O)c(OC)c2)c(OC)c1",
    "pKi": 4.82
  },
  {
    "compound": "C/C=C/c1cc(OC)c2c(c1)[C@H](C)[C@@H](c1ccc(O)c(OC)c1)O2",
    "pKi": 5.03
  },
  {
    "compound": "COc1cc([C@@H](O)[C@@H](C)Oc2c(OC)cc(/C=C/CO)cc2OC)ccc1O",
    "pKi": 5.52
  },
  {
    "compound": "C=CCc1cc(O)c(OC)c(O)c1",
    "pKi": 5.31
  },
  {
    "compound": "C/C=C/c1cc(OC)c2c(c1)[C@H](C)[C@@H](c1cc(OC)c3c(c1)OCO3)O2",
    "pKi": 4.32
  },
  {
    "compound": "C=CCc1cc(OC)c(O)c(OC)c1",
    "pKi": 5.38
  }
]

Q: Name the recorded pKi of the item C/C=C/c1cc(OC)c2c(c1)[C@H](C)[C@@H](c1ccc3c(c1)OCO3)O2 [(-)-LICARIN B] in your answer.
Result: 5.89
